Target: full length AKT E17K (Homo sapiens, UniProt P31749, E17K)
Construct: host or cells: HEK-293 (ATCC CRL-1573)
Sequence (P31749 whole entry E17K): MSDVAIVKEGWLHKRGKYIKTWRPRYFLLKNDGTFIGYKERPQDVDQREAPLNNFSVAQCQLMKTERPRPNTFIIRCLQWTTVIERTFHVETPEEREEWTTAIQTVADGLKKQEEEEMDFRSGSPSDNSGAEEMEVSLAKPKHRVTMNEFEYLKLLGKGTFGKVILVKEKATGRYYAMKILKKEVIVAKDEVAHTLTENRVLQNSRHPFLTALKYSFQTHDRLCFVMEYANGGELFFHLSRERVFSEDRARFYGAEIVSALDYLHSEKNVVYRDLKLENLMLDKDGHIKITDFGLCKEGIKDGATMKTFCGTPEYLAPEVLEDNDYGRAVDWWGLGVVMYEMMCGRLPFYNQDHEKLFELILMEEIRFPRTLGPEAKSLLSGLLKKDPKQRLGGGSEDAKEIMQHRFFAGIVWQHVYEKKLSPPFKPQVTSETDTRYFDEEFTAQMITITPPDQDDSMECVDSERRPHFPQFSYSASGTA
Assay: NanoBRET Target Engagement (TE) Assay
Type: cell-based
Details: competitive displacement of tracer in cells, read-out: AKT1 E17K IC50
QUANTITY NAME: IC50

Answered cases to consult:
> print(dat)
                                 cpd.smiles  value.observed
1  N#Cc1nccc(NC2CCN(Cc3ccc(-n4c(-c5cccnc5N)nc5ccc(F)nc54)cc3)CC2)n1     15 to 60 nM
2  N#Cc1nccc(NC2CCN(Cc3ccc(-n4c(-c5cccnc5N)nc5ccc(-c6ccns6)nc54)cc3)CC2)n1         < 15 nM
3  Cn1ncc(-c2ccc3nc(-c4nccnc4N)n(-c4ccc(CN5CCC(Nc6ccnc(C#N)n6)CC5)cc4)c3n2)n1         < 15 nM
4  Cn1cc(-c2ccc3nc(-c4cccnc4N)n(-c4ccc(CN5CCC(Nc6ccnc(C#N)n6)CC5)cc4)c3n2)cc1C#N         < 15 nM
5  N#Cc1nccc(NC2CCN(Cc3ccc(-n4c(-c5cccnc5)nc5ccc(-c6ccc(F)cn6)nc54)cc3)CC2)n1    60 to 600 nM

# input Sample CC(C)n1cc(-c2ccc3nc(-c4cccnc4N)n(-c4ccc(CN5CCC(Nc6ccnc(C#N)n6)CC5)cc4)c3n2)cn1 — what was its IC50?
# output < 15 nM

# input Sample CC(C)(C)c1ccc2nc(-c3cccnc3N)n(-c3ccc(CN4CCC(Nc5ccnc(C#N)n5)CC4)cc3)c2n1 — what was its IC50?
# output 15 to 60 nM

---

Quick reference: IC50 of the listed items.
Biological target: full length AKT E17K (Homo sapiens, UniProt P31749, E17K)
Construct: host or cells: HEK-293 (ATCC CRL-1573)
Experiment: NanoBRET Target Engagement (TE) Assay
Format: cell-based
Details: competitive displacement of tracer in cells, read-out: AKT1 E17K IC50

> print(dat)
                                   compound  value.observed
1  [2H]C([2H])([2H])Oc1ccc(-c2ccc3nc(-c4nccnc4N)n(-c4ccc(CN5CCC(Nc6ccnc(C#N)n6)CC5)cc4)c3n2)nc1         < 15 nM
2  N#Cc1nccc(N2C[C@@H]3CN(Cc4ccc(-n5c(-c6cccnc6N)nc6ccc(-c7ccc(F)cc7)nc65)cc4)C[C@H]3C2)n1     15 to 60 nM

Turning to the following compound.
# input Sample C[S+]([O-])c1ccc2nc(-c3cccnc3N)n(-c3ccc(CN4CCC(Nc5ccnc(C#N)n5)CC4)cc3)c2n1 (stereo not drawn) — what was its IC50?
# output 60 to 600 nM

---

Biological target: full length AKT E17K (Homo sapiens, UniProt P31749, E17K)
Construct: host or cells: HEK-293 (ATCC CRL-1573)
Assay: NanoBRET Target Engagement (TE) Assay
Type: cell-based
Conditions: competitive displacement of tracer in cells, read-out: AKT1 E17K IC50
QUANTITY NAME: IC50

Answered cases to consult:
> print(dat)
                                   compound  quantity.name  value.observed
1  CC(=O)N(C)c1cccc(-c2ccc3nc(-c4cccnc4N)n(-c4ccc(CN5CCC(Nc6ccnc(C#N)n6)CC5)cc4)c3n2)c1 [Example 514]           IC50         < 15 nM
2  N#Cc1nccc(NC2CCN(Cc3ccc(-n4c(-c5cccnc5N)nc5ccc(-c6ccncc6)nc54)cc3)CC2)n1 [Example 433]           IC50         < 15 nM
3  COc1ncccc1-c1ccc2nc(-c3cccnc3N)n(-c3ccc(CN4CCC(Nc5ccnc(C#N)n5)CC4)cc3)c2n1 [Example 537]           IC50         < 15 nM
4  N#Cc1nccc(NC2CCN(Cc3ccc(-n4c(-c5cccnc5N)nc5ccc(N6CCOCC6=O)nc54)cc3)CC2)n1 [Example 387]           IC50    60 to 600 nM
5  COc1ccnc(-c2ccc3nc(-c4cccnc4N)n(-c4ccc(CN5CCC(Nc6ccnc(C#N)n6)CC5)cc4)c3n2)c1 [Example 437]           IC50         < 15 nM

Turning to the following compound.
# input Sample Cn1ccc(-c2ccc3nc(-c4cccnc4N)n(-c4ccc(CN5CCC(Nc6nccc(C#N)n6)CC5)cc4)c3n2)cc1=O [Example 360] — what was its IC50?
# output 60 to 600 nM
